Tested on: OVCAR-8
Assay: NCI tumour cell line growth inhibition, 48 h
Activity calls are given as the source filed them. Cut-off read from the data, not from the text of the source: active = GI50 up to about 1.1 µM and inactive = higher.
Possible outcomes: active, inactive

>  <compound>
CC/C(C)=C1\CCC(CN(C)C)C1=O (centres undefined)

>  <qualitative_label>
inactive

$$$$
>  <compound>
Cc1ccc(S(=O)(=O)NC2C(=O)c3ccccc3C(=O)C2n2ccnc2)cc1 (centres undefined)

>  <qualitative_label>
inactive

$$$$
>  <compound>
COC(=O)c1cccc(C)c1C1CN=NC12Cc1c(ccc(C)c1C)C2=O (centres undefined)

>  <qualitative_label>
inactive

$$$$
>  <compound>
Cc1cccc(NC(=O)/C(=N\N)C(c2cnc3ccc([N+](=O)[O-])cc3n2)[N+](=O)[O-])c1C (centres undefined)

>  <qualitative_label>
inactive

$$$$
>  <compound>
CO[C@@H]1C[C@H](OC(N)=O)[C@@H]2C=C[C@@H]3/C=C(C)/C=C/[C@@H](C)[C@H]([C@H](C)[C@H](O)[C@@H](C)NC(C)=O)OC(=O)/C=C/C=C(C)\C=C\[C@]3(C)[C@@H]2C1

>  <qualitative_label>
active

$$$$
>  <compound>
CC(=O)OC1CC2(C)C(OC(C)=O)CC1C2(C)C (centres undefined)

>  <qualitative_label>
inactive

$$$$
>  <compound>
COc1ccc(/C(Nc2ccccc2)=C(\CCl)c2ccccc2)cc1OC

>  <qualitative_label>
inactive

$$$$
>  <compound>
O=C1C(Cl)C(c2ccccc2)N1n1cnc2ccccc2c1=O (centres undefined)

>  <qualitative_label>
inactive

$$$$
>  <compound>
Nc1ncnc2c1ncn2C1CC(O)C(CO)O1 (centres undefined)

>  <qualitative_label>
inactive

$$$$
